Biological target: human ether-à-go-go-related gene (hERG) potassium channel (human, UniProt Q12809);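 note: peak tail current of the secondary pulse compared with the same well before compound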
Sequence (Q12809 whole entry, looked up): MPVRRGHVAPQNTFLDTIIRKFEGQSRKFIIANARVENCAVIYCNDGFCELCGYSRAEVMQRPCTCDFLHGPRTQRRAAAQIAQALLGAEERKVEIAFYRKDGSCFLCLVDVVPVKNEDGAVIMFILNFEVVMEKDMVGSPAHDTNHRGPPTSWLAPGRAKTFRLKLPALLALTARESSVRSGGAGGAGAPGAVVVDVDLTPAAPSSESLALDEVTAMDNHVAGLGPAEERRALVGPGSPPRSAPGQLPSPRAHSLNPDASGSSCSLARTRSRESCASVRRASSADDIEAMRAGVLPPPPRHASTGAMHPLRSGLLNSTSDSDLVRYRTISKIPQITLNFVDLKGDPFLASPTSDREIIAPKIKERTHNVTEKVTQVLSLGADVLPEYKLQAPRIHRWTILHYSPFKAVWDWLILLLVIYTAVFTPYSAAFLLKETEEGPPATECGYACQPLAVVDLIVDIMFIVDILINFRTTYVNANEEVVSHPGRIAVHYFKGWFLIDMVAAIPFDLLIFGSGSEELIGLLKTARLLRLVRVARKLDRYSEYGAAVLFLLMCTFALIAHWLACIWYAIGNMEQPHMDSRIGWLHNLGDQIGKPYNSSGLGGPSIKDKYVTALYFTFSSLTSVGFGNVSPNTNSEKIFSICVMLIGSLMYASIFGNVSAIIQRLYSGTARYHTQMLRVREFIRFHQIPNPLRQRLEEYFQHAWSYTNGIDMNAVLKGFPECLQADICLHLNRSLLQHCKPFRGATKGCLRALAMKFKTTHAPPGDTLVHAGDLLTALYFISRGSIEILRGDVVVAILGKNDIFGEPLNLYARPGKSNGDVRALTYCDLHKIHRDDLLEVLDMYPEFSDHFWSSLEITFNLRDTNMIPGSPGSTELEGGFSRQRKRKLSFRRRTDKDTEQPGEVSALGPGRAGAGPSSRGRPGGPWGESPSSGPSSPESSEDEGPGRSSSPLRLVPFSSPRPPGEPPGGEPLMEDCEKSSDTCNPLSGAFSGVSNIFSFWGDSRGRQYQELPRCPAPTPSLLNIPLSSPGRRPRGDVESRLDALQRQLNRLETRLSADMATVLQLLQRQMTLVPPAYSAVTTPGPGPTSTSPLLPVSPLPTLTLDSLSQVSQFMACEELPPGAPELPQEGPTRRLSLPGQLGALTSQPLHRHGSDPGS
Test: primary screen, population patch clamp on CHO cells stably expressing hERG; higher = less effect of the substance
Among all 310,000 compounds or so, about 14,000 (4.5%) showed an effect of 50% or more. The effect is printed as a negative number. This is one part of a sample in which strong results are shown more often than they occur.
QUANTITY: hERG current change (%, negative = inhibition) at 10uM (%)
Give bare numbers, in %.

>>> meas_value("CC1CCN(c2nc3ccccc3nc2C(C#N)C(=O)OC2CCCCC2)CC1 (centres unmarked)")
11.3

Could you report hERG current change (%, negative = inhibition) at 10uM for every entry in the following list?
1. Cc1nc(C)c(-c2ccc(SCc3ccc(Cl)cc3)nn2)s1
2. CCN(Cc1ccccc1)C(=O)CN1C(=O)c2ccccc2S1(=O)=O
3. C/C(=N/NC(=O)CN1CCN(Cc2ccccc2Cl)CC1)c1ccncc1
4. CCc1ccc(CN(C)CC(=O)Nc2sccc2C#N)cc1
5. COCC(=O)N1CCC(Oc2ccc(C(=O)NC(C)c3csc(C)n3)cc2)CC1 (centres unmarked)
6. COc1ccc(OC)c(S(=O)(=O)N2CCC(C(=O)NCc3ccncc3)CC2)c1
7. Cn1nc(C(=O)Nc2nc3ccc(S(C)(=O)=O)cc3s2)ccc1=O
8. Cc1ccc(-c2nnc(N3CCN(C(=O)CSc4ncn[nH]4)CC3)c3ccccc23)cc1

Response:
-14.7
-3.97
-65.4
-16.4
10.4
16.4
-20.7
-32.6

Could you report hERG current change (%, negative = inhibition) at 10uM for every entry in the following list?
1. CCc1cccc2c(C(=O)COC(=O)c3nn(C)c(=O)c4ccccc34)c[nH]c12
2. CCc1cccc2c(C(=O)COC(=O)c3cnc(C)cn3)c[nH]c12
3. Cc1ccc(-c2nnc(N3CCN(C(=O)COc4cccc(C)c4)CC3)c3ccccc23)cc1
4. C/C(=N\NC(=O)CN1CCN(Cc2ccccc2)CC1)c1ccncc1
5. CCOc1ccc(NC(=O)C(C)Sc2nccn2C)cc1 (centres unmarked)

Response:
-65.6
2.87
-54.6
-35.8
6.78

Give one value of hERG current change (%, negative = inhibition) at 10uM per listed compound.
1. CC(NS(=O)(=O)c1ccc(Cl)cc1)C(=O)NCCC1=CCCCC1 (centres unmarked)
2. CCN1CCN(c2ccc([N+](=O)[O-])cc2S(=O)(=O)N2CCOCC2)CC1
3. COc1ccc(/C=N/OCC(=O)N2CC3(C)CC2CC(C)(C)C3)cc1 (centres unmarked)
4. O=C(CCc1nnc(CCCCc2ccccc2)o1)NCCN1CCCCC1=O

Response:
1. -5.41
2. -43.9
3. -56
4. 18.2

Hi, could you look up hERG current change (%, negative = inhibition) at 10uM for each item in my list?
1. Cc1ccc(N=Nc2c(N)n[nH]c2N)cc1
2. CCCCCCOC(=O)C(C#N)c1nc2ccccc2nc1N1CCOCC1 (centres unmarked)
3. C=CCSc1n[nH]c(-c2ccc(OCCCC)cc2)n1
4. N#CC(C(=O)OC1CCCCC1)c1nc2ccccc2nc1N1CCOCC1 (centres unmarked)

Response:
1: 24.5; 2: 1.23; 3: -7.32; 4: -36.8

Could I get hERG current change (%, negative = inhibition) at 10uM for every one of these entries?
1. CCOc1ccccc1N1CC(C(=O)Nc2c(C)n(C)n(-c3ccccc3)c2=O)CC1=O (centres unmarked)
2. Cc1cccc(OCC(=O)N2CCN(c3nnc(-c4ccccc4)c4ccccc34)CC2)c1
3. COc1ccc(C2=NCC(=O)N(CC(=O)NCc3ccco3)c3sc4c(c32)CCCC4)cc1OC

Response:
[20.7, -69.7, -17.3]

Prompt: Reported hERG current change (%, negative = inhibition) at 10uM for `COc1ccc(N(CC(=O)Nc2ccccc2F)S(=O)(=O)c2ccc(OC)c(OC)c2)cc1` : what is it?
Response: -24.2
